- Test system: BCRP
- test_protocol: Apparent permeability across basolateral to apical side in MDCK-II-BCRP cells at 3 uM preincubated with BCRP inhibitor, Ko 143 for 15 to 30 mins followed by compound addition and measured after 60 to 90 mins by LC-MS/MS analysis
- Format: ADME, cell-based, Canis lupus familiaris
- assay_conditions: dog, with Ko 143 (BCRP inhibitor; concentration not stated), time 60-90 min
quantity_name: Papp B→A at 3 µM

State the recorded Papp B→A at 3 µM for this entry: O=C([O-])/C=C1\CCCc2cc(-c3ccccc3)ccc2C1O.[Na+] (stereo unspecified)
16.5 ×10⁻⁶ cm/s
